Measured values drawn from PubChem BioAssay (EPA / NIEHS) for this set.

Test: BSK_3C_Vis: BioMAP Diversity Plus: 3C Assay for Morphology Visualization (AID 2283025);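 also: fitted both ways so gain or loss versus DMSO counts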
Conditions: primary human endothelial cells (HUVEC)
Activity calls are given as the source filed them. The calls were made as follows: active = hit-call score of the fitted dose curve at least 0.9, where 1 is the maximum; inactive = score below 0.9.
Outcome (select one): active, inactive

Hi, sorry to bother you, what did the test record for CCN(CC)c1ccc2c(c1)Oc1cc(N(CC)CC)ccc1C21OC(=O)c2ccccc21 ?
active

Hi, sorry to bother you, what did the test record for CCN(CC)c1ccc(C=O)cc1 ?
inactive

Hi, sorry to bother you, what did the test record for O=C(c1ccccc1)c1ccc(O)cc1O ?
inactive

Hi, sorry to bother you, what did the test record for CC(C)(C)c1cc(CCC(=O)NCCCCCCNC(=O)CCc2cc(C(C)(C)C)c(O)c(C(C)(C)C)c2)cc(C(C)(C)C)c1O ?
active

Hi, sorry to bother you, what did the test record for Cc1cc(O)c(C(C)(C)C)cc1C(C)(C)C ?
active

Hi, sorry to bother you, what did the test record for Cc1cnccn1 ?
inactive

Hi, sorry to bother you, what did the test record for Cc1ccc(S(=O)(=O)C(I)I)cc1 ?
active

Hi, sorry to bother you, what did the test record for Brc1nc2ccccc2s1 ?
inactive

Hi, sorry to bother you, what did the test record for O=C=Nc1cccc2c(N=C=O)cccc12 ?
inactive

Hi, sorry to bother you, what did the test record for CCOC(C=C(C)CCC=C(C)C)OCC ?
active
